Here, each record is paired with measured IC50 data.
# target.or.system: WRN [UniPro: Q14191 (WRN_HUMAN), N500-C946] (Homo sapiens (Human))
# Sequence (Q14191 500-946): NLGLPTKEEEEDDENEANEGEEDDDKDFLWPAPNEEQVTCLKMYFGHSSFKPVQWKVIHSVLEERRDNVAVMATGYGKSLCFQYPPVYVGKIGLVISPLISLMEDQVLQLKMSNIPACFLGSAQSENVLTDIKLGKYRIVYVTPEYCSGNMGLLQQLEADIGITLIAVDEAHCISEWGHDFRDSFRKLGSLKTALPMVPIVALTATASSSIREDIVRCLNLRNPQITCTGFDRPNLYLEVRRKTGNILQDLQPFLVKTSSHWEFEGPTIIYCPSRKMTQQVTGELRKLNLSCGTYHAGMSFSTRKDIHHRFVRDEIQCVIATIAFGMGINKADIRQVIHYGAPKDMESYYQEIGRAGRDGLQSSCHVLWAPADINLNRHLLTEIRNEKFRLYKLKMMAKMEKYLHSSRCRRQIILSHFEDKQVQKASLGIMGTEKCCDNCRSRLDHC
# test.summary: WRN unwinding assay (FORKF DNA, fluorescence)
# Format: biochemical
# condition.info: Table 14

Solved cases below.
[[record]]
mol_smiles = "CCc1c(N2CCN(C(=O)C(=O)Nc3cncs3)CC2)c(=O)n2nc(C3=CCOCC3)nc2n1CC(=O)Nc1ccc(C(F)(F)F)cc1Cl"
observed_result = "< 100 nM"

[[record]]
mol_smiles = "CCc1c(N2CCN(C(=O)CNC(=O)c3ccccc3F)CC2)c(=O)n2nc(C3=CCOCC3)nc2n1CC(=O)Nc1ccc(C(F)(F)F)cc1Cl"
observed_result = "< 100 nM"

[[record]]
mol_smiles = "CCc1c(N2CCN(C(=O)c3ccnc(=O)[nH]3)CC2)c(=O)n2nc(C3=CCOCC3)nc2n1CC(=O)Nc1ccc(C(F)(F)F)cc1Cl"
observed_result = "< 100 nM"


Then there is this molecule:
Per the record, CCc1c(N2CCN(C(=O)CNC(=O)c3ccccc3F)CC2)c(=O)n2nc(N3CCOCC3)nc2n1CC(=O)Nc1ccc(C(F)(F)F)cc1F has IC50 of < 100 nM
